// provenance: ChEMBL document CHEMBL1201862

Test system: U-251
Test: NCI tumour cell line growth inhibition, 48 h
Active and inactive are the calls of the source. No stated cut-off is given here; in the data, active = GI50 up to about 1.1 µM and inactive = higher.
Listed here: items and their measured GI50.

O=C(c1ccccc1)C1(Br)S(=O)(=O)OCCOS1(=O)=O | > 100 µM (inactive)
CN(CC(=O)O)c1ncc2c(n1)-c1ccccc1CC2 | > 100 µM (inactive)
O=c1[nH]c(=S)[nH]c2c(C3OC(CO)C(O)C3O)nsc12 (stereo not drawn) | > 100 µM (inactive)
COc1c(-c2nc3ccc(N4CCN(C)CC4)nc3[nH]2)cc(OC)c2c1nc(COC(C)=O)n2C | 97.1 µM (inactive)
CC1(C)Cc2nnsc2C2=C1C(=O)CCS2 | 60.4 µM (inactive)

Value lookup for GI50; key = O=c1[nH]c(=O)n(C2OC(CO)C(O)C2O)c2nc(-c3ccc(-c4ccccc4)cc3)cnc12 (stereo not drawn)
> 100 µM (inactive)

Entry "CCOC(=O)/C=C(\C(=O)OCC)n1ccc(=O)n(Cc2cn(COCCOC(C)=O)nn2)c1=O" please
18.9 µM (inactive)

Another molecule to look at: CC(=O)OCC1OC(n2cnc(C(N)=S)c2N)C(OC(C)=O)C1OC(C)=O (stereo not drawn)
> 100 µM (inactive)

Now try Clc1ccccc1-c1nc(-c2ccncc2)no1 [PIFEXOLE] .
65.8 µM (inactive)

What do you get for "COC(=O)c1ccccc1/C=C1\Cc2c(ccc3c2CCC3)C1=O" ?
68.4 µM (inactive)

Request: CCCCCCCCCCCC(=O)OCC1OC(n2cc(F)c(=O)[nH]c2=O)C(N)C(OC(=O)CCCCCCCCCCC)C1O (stereo not drawn)
> 100 µM (inactive)

Now the molecule "O=C(NCCc1ccccc1)c1c(O)nc2ccccc2c1O"
> 100 µM (inactive)

How about this molecule: "COc1ccc(/C=C2\c3cc(OC)c(OC)cc3CCN2C(=O)c2ccccc2)cc1OC"
82.6 µM (inactive)

---

compounds and their reported GI50
Test system: 786-0
Experiment: NCI tumour cell line growth inhibition, 48 h
The source made the active and inactive calls. Rule as the data show it: active = GI50 up to about 1.1 µM and inactive = higher.

CC(C)Nc1[nH]c(C(=O)c2ccccc2)c(N)c1C(=S)Nc1ccccc1 | 36.5 µM (inactive)
O=CCCCC(Sc1ccccc1)Sc1ccccc1 | 19.1 µM (inactive)
O=[N+]([O-])c1ccc(N2C[N+](c3ccccc3)=NC(c3ccccc3)=N2)cc1 | 59.7 µM (inactive)
CCN1C(=O)C(=C/C=C/c2ccc(OC)cc2)C(=O)N(CC)C1=S | 17.6 µM (inactive)

I am curious: what GI50 value has been reported for CC1(C)O[C@H]2OC3CCC(=O)CC3(O)[C@H]2O1 (stereo not given in full) ?
> 100 µM (inactive)

// query: "O=C(/C(=N/Nc1cn[nH]c(=O)c1Cl)c1ccccc1)c1ccccc1"
16 µM (inactive)

Next entry: COc1ccc(C2SC(=N)Nc3c2c(C)nn3C(=O)c2ccccc2O)cc1 (stereo not given)
1.31 µM (inactive)

Also "O=C(CC1=Nc2nnc(-c3nnc4n3C(=O)C(CC(=O)c3cccnc3)=N4)n2C1=O)c1cccnc1" ?
> 100 µM (inactive)

Same question for "Cc1ccc2oc3c(c(Br)c(Br)n3C)c(=O)c2c1" please.
16.7 µM (inactive)

Now consider "O=c1nc(NC(c2ccccc2)(c2ccccc2)c2ccccc2)ccn1CCNCCn1ccc(NC(c2ccccc2)(c2ccccc2)c2ccccc2)nc1=O" and answer again.
14.1 µM (inactive)

---

Tested on: OVCAR-8
Assay: NCI tumour cell line growth inhibition, 48 h
The source made the active and inactive calls. Cut-off read from the data, not from the text of the source: active = GI50 up to about 1.1 µM and inactive = higher.
# GI50 listing for each entry below

O=C1Nc2cc([N+](=O)[O-])ccc2N/C1=C/C(=O)c1ccc(Cl)cc1 | 8 µM (inactive)
CC(OCc1ccccc1)C(NC(=O)C1CSSCC(NC(=O)C(Cc2ccccc2)NC(=O)OCc2ccccc2)C(=O)NC(Cc2ccccc2)C(=O)NC(Cc2cn(C=O)c3ccccc23)C(=O)NC(CCCCNC(=O)OCc2ccccc2)C(=O)NC(C(C)OCc2ccccc2)C(=O)N1)C(N)=O (stereo not given) | 75.2 µM (inactive)
CC12CCC(C(=O)n3c1nc1ccccc13)C(C)(C)O2 (stereo not given) | > 100 µM (inactive)

Give its GI50 value. Item: O=[N+]([O-])c1ccc2c(c1)nc1n2C(c2c(F)cccc2F)SC1 (stereo not given)
> 100 µM (inactive)

# repeat for "CSc1nc(=O)c2nc(-c3cccs3)c(-c3cccs3)nc2n1C"
29.3 µM (inactive)

---

Each item that follows carries a reported GI50.
Tested on: 786-0
Assay: NCI tumour cell line growth inhibition, 48 h
Activity calls are given as the source filed them. Rule as the data show it: active = GI50 up to about 1.1 µM and inactive = higher.

CCOC(=O)C1(CC(=O)O)CCCC1=O (stereo not given) | > 100 µM (inactive)
C[C@@]12CCC(=O)c3coc(c31)C(=O)c1cc3c(cc12)C(=O)C=CC3=O | 17.2 µM (inactive)
O=[N+]([O-])c1cccc(C2=NN(c3ccccc3)C[N+](c3ccc(Br)cc3)=N2)c1 | > 100 µM (inactive)

Suppose we examine the molecule "COc1ccc(CCNC(=S)NC=C2C(=O)c3ccccc3C2=O)cc1OC" ; what GI50 value has been reported?
> 100 µM (inactive)

// repeat for "Oc1ccc(Br)cc1/C=N/C1CCCCC1" and report
22.9 µM (inactive)
